# credit: ChEMBL document CHEMBL4296182

- Test system: Cryptococcus neoformans
- test context: Concentration 20 uM; ASSAY_TEST Inhibition of Fungal Growth; detection method Resazurin; Absorption (OD600-OD570); plate type 384well; NBS; CORNING #3640
- Description: Antifungal activity against Cryptococcus neoformans H99 ATCC 208821 (CO-ADD:FG_002); MIC in YNB media using NBS plates, by Resazurin OD(600-570)
Results with a measured potency or affinity are listed apart.
Inhibition values by entry
Express the result in % but write the number alone.

CSC(=O)NC(=O)NC(=O)c1ccc([N+](=O)[O-])cc1	44.26
CN1CCN(C(=O)/C=C/c2ccc([N+](=O)[O-])o2)CC1	10.04
Oc1ccccc1-c1nnco1 [FENADIAZOLE]	-7.26
C#CCOCC1CN(c2ccccc2)C(=O)O1 (stereo not given)	-15.19
CC1=NN(c2ccccc2)C(=O)C1C(=S)SC1CC(=O)NC1=O (stereo not given)	3.97

query: Give the value of Inhibition reported for the following: Cc1nc(NC(=N)N(C)C)nc(O)c1C
result: -10.51

query: Give the value of Inhibition reported for the following: c1coc(CNc2[nH]cnc3nncc2-3)c1
result: -6.46

====

Inhibition values by entry
- Test system: Candida albicans
- test context: 20 µM
- Description: Antifungal activity against Candida albicans ATCC 90028 (CO-ADD:FG_001); MIC in YNB media using NBS plates, by OD630
Results with a measured potency or affinity are listed apart.
Express the result in % but write the number alone.

Solved entries:
Cc1c(Cl)ccc2c(C(=O)O)cc(-c3ccccc3)nc12	2.48
Oc1cc(-n2cccn2)c(O)cc1-n1cccn1	25.5
CC(=O)O.COc1ccc2nccc(/C=C/c3ccnc4ccc(OC)cc34)c2c1	5.73
N#Cc1ccc(NC2c3ccccc3CC2O)cc1 (stereo not given)	0.94
COc1cc(NC(C)=O)c2ncccc2c1Br	6.33

query: Give the value of Inhibition reported for the following: NC(=O)C1=CC2C3C=CC2(O)C(=O)OC3O1 (stereo not given)
result: 3.39

query: Give the value of Inhibition reported for the following: O=S1(=O)CSCS(=O)(=O)C1
result: 5.55

query: Give the value of Inhibition reported for the following: C#CC(C)OCC1CNC(=S)O1 (stereo not given)
result: 4.06

query: Give the value of Inhibition reported for the following: O=c1oc2c(cc1O)oc(=O)c1cc(O)c(O)c(O)c12
result: 14.8

query: Give the value of Inhibition reported for the following: CC(C)(C)N=C(S)NC(C)(C)C
result: 1

====

- Test system: Acinetobacter baumannii
- method summary: Antibacterial activity against Acinetobacter baumannii ATCC 19606 (CO-ADD:GN_034); MIC in CAMBH media using NBS plates, by Resazurin F(560/590)
- Type: functional
- test context: Concentration 20 uM, ASSAY_TEST Inhibition of Bacterial Growth, detection method Resazurin, Fluorescence (ex560/em590), MEDIA CAMHB, plate type 384well, CORNING #3640, time 18 hr
measured parameter: Inhibition

Solved entries:
CNC1(C(N)=O)CCNCC1	-11.41%
Nc1ccc(NC(=O)c2ccc(C(=O)Nc3ccc(N)cc3)cc2)cc1	-8.34%
CC(C)(C)c1ccc(C(=O)Nc2ccc(S(N)(=O)=O)cc2)cc1	5.57%

query: Give the value of Inhibition reported for the following: Cn1nc(SCc2ccccc2)c(=O)n(C(c2ccccc2)c2ccccc2)c1=O
result: -15.03%

query: Give the value of Inhibition reported for the following: CCc1oc2ccccc2c1C(=O)c1cc(Br)c(O)c(Br)c1 [BENZBROMARONE]
result: -9.24%

query: Give the value of Inhibition reported for the following: O=c1oc2c(cc1O)oc(=O)c1cc(O)c(O)c(O)c12
result: 17.2%

query: Give the value of Inhibition reported for the following: Oc1nccc(SCc2ccc(Cl)cc2Cl)n1
result: 6.51%
